All values here come from patent US20150157783A1.

assay: UV-Vis titration, 1:1 binding of dihydrogen phosphate (Bu4N+ salt) in aqueous DMSO; conditions: 25% aqueous DMSO (v/v)
ASSAY_METRIC: Binding constant (1:1) to H2PO4^−
Enter the number, and then the unit.

Here is how some molecules turned out for Binding constant (1:1) to H2PO4^−.
STRUCTURE_NOTATION	RECORDED_VALUE
O=[N+]([O-])c1ccc(NC(=S)Nc2ccccc2)cc1	12 M⁻¹
O=[N+]([O-])c1ccc(NC(=S)Nc2ccccc2-c2cccc(-c3ccccc3NC(=S)Nc3ccc([N+](=O)[O-])cc3)c2)cc1	28 M⁻¹

Binding constant (1:1) to H2PO4^− in this record for `O=[N+]([O-])c1ccc(NC(=S)Nc2ccccc2-c2cc(-c3ccccc3NC(=S)Nc3ccc([N+](=O)[O-])cc3)cc(-c3ccccc3NC(=S)Nc3ccc([N+](=O)[O-])cc3)c2)cc1` : 4000 M⁻¹

Binding constant (1:1) to H2PO4^− in this record for `FC(F)(F)c1cc(NC(=S)Nc2ccccc2-c2cc(-c3ccccc3NC(=S)Nc3cc(C(F)(F)F)cc(C(F)(F)F)c3)cc(-c3ccccc3NC(=S)Nc3cc(C(F)(F)F)cc(C(F)(F)F)c3)c2)cc(C(F)(F)F)c1` : 10000 M⁻¹
